target: native, endogenous murine BACE1 in PDAPP primary cortical neurons (Mus musculus); construct: endogenous in cells; host or cells: primary cortical neurons from Embryonic Day 16 PDAPP transgenic mouse embryos; assay: PDAPP primary neuronal assay (Abeta ELISA); assay type: cell-based; settings: primary cortical neurons from PDAPP embryos, 24 h, Abeta 1-40; read-out: PDAPP Neuron A-beta (1-40) ELISA IC50
Sequence (P56818 46-501): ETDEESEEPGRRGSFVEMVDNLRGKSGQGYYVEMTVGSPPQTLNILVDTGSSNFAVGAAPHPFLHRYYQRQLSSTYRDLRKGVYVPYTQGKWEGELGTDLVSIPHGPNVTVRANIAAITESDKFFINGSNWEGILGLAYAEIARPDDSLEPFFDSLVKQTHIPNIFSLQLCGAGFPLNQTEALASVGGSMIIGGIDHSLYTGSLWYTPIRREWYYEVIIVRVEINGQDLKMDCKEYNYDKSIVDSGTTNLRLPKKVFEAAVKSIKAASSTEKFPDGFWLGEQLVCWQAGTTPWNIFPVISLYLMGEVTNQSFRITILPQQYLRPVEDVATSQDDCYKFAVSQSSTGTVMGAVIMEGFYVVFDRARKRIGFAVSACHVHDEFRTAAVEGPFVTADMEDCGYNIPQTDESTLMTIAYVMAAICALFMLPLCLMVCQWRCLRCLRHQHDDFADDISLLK
Structures can show the parent of a compound that is named as a salt.
PARAMETER MEASURED: IC50

> print(dat)
                                   molecule                                       tgt  parameter.measured   result
1  NC1=N[C@@]2(c3cccc(-c4cncnc4)c3)CCCC[C@H]2CS1 [Example 25, dihydrochloride]  native, endogenous murine BACE1 in PDAPP primary cortical neurons (Mus musculus)                IC50   734 nM
2  NC1=N[C@@]2(c3cccc(-c4cncnc4)c3)C[C@H](O)C[C@H]2CS1 (racemic) [Example 32, dihydrochloride]  native, endogenous murine BACE1 in PDAPP primary cortical neurons (Mus musculus)                IC50   436 nM
3  NC1=N[C@@]2(c3cc(NC(=O)c4nccs4)ccc3F)CCOC[C@H]2CS1 [Example 8, hydrochloride]  native, endogenous murine BACE1 in PDAPP primary cortical neurons (Mus musculus)                IC50  32.8 nM

* * *

# IC50 per entry
target: human BACE1(1-460):Fc (Homo sapiens, UniProt P56817); construct: purified from conditioned media by Protein A chromatography; experiment: BACE1 FRET assay; settings: purified recombinant human BACE1(1-460):Fc, FRET substrate, pH 4.6
Sequence (P56817 22-460): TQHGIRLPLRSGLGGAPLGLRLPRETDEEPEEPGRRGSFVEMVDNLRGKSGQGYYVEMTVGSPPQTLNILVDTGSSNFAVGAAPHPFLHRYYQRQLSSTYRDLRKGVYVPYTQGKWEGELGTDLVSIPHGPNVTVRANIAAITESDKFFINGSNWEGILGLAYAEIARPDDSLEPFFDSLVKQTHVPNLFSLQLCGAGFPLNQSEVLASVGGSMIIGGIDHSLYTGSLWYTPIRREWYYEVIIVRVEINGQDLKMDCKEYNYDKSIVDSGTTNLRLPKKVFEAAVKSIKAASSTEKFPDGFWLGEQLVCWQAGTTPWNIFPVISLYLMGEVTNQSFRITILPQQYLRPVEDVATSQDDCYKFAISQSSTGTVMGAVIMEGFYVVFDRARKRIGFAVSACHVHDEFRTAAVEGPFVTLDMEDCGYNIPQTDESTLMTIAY
Where a name gives a salt, the structure may show the parent alone.
PARAMETER MEASURED: IC50 (nM)

> print(dat)
                                   molecule  parameter.measured  readout.number
1  NC1=N[C@@]2(c3cccc(-c4cncnc4)c3)CCCC[C@H]2CS1 [Example 25, dihydrochloride]                IC50             731
2  NC1=N[C@@]2(c3cccc(-c4cncnc4)c3)C[C@H](O)C[C@H]2CS1 (racemic) [Example 32, dihydrochloride]                IC50             346
3  NC1=N[C@@]2(c3cc(NC(=O)c4nccs4)ccc3F)CCOC[C@H]2CS1 [Example 8, hydrochloride]                IC50             179

* * *

target: native endogenous human BACE1 in HEK293/APP751sw cells (Homo sapiens, UniProt P56817); construct: endogenous in cells; host or cells: HEK293p (ATCC CRL-1573) stably expressing APP751sw; assay: HEK293Swe whole cell assay (Abeta ELISA); type: cell-based; settings: Abeta 1-42 in conditioned media, read-out: HEK 293 Swe A-beta (1-42) ELISA IC50
Sequence (P56817 46-501): as the sequence (P56818 46-501) above, with S6P, I162V, I165L, T180S, A182V, V340I, A393L, H443Q counted along it
Structures can show the parent of a compound that is named as a salt.
# IC50 per entry
PARAMETER MEASURED: IC50

> print(dat)
                                   compound                                       tgt   result
1  NC1=N[C@@]2(c3cc(NC(=O)c4nccs4)ccc3F)CCOC[C@H]2CS1 [Example 8, hydrochloride]  native endogenous human BACE1 in HEK293/APP751sw cells (Homo sapiens, UniProt P56817)  89.6 nM
2  NC1=N[C@@]2(c3cccc(-c4cncnc4)c3)CCCC[C@H]2CS1 [Example 25, dihydrochloride]  native endogenous human BACE1 in HEK293/APP751sw cells (Homo sapiens, UniProt P56817)  1150 nM
3  NC1=N[C@@]2(c3cccc(-c4cncnc4)c3)C[C@H](O)C[C@H]2CS1 (racemic) [Example 32, dihydrochloride]  native endogenous human BACE1 in HEK293/APP751sw cells (Homo sapiens, UniProt P56817)   173 nM

Source listed as patent US8278441B2.
